Reference for the values: patent US20230116703A1

# assay-remarks: Metabolic stability in mouse liver microsomes (MLM)
# Type: in vitro ADME
# particulars: mouse, pooled mouse liver microsomes, pH 7.4, MLM (CD-1), 0.50 mg protein per mL
property-name: half-life at 1 μM (min)
Answer format: numeric, min implied, no suffix.

Give a short answer stating reported half-life at 1 μM for CC[C@@H](C)NC(=O)[C@@H]1C=C2c3cccc4[nH]cc(c34)C[C@H]2N(CC)C1 [Compound 5] .
8.1

###

Reported EC50 is given for each of the following compounds.
# test-target: 5-HT1A receptor (Homo sapiens)
# Construct: host or cells: CHO cells
# Sequence (P08908 whole entry): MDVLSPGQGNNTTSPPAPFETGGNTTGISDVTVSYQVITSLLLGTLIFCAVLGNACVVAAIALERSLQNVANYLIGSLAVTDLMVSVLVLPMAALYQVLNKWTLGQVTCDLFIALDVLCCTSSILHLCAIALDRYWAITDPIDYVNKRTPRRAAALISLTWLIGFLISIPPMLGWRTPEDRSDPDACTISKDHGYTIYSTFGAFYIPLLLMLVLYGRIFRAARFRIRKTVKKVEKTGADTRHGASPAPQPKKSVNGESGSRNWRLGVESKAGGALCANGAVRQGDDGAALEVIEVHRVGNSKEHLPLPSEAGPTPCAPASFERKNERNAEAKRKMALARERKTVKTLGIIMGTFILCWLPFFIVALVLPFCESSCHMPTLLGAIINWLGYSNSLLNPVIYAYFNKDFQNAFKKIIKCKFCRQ
# assay-remarks: cell-based
# output: bare number, implied unit nM

Completed entries (count: 2):
CCC(CC)NC(=O)[C@H]1C=C2c3cccc4[nH]cc(c34)C[C@H]2N(C)C1 [Int14a]
1550
C[C@H]1C[C@H](C)N1C(=O)[C@@H]1C=C2c3cccc4[nH]cc(c34)C[C@H]2N(C)C1
8.88

Then there is this compound:
Supply EC50 value. Item: CCC(CC)NC(=O)[C@@H]1C=C2c3cccc4[nH]cc(c34)C[C@H]2N(C)C1
46

###

# test-target: 5-HT2A receptor (Homo sapiens)
# Construct: host or cells: HEK293
# assay-remarks: cell-based
# Assay type: cell-based
# particulars: Ca^2+ flux, agonist; read-out: 5-HT2A EC50
property-name: pEC50
Formally, pEC50 is defined as -log10 of the concentration c, with c in mol/L.

CCCN1C[C@H](C(=O)N2[C@@H](C)C[C@@H]2C)C=C2c3cccc4[nH]cc(c34)C[C@H]21
7.67

# return recorded pEC50 for entry CCCN1C[C@H](C(=O)N(CC)CC)C=C2c3cccc4[nH]cc(c34)C[C@H]21
7.73

Identify the reported pEC50 for the following entry. CC[C@@H](C)NC(=O)[C@@H]1C=C2c3cccc4[nH]cc(c34)C[C@H]2N(CC)C1
9.14

# return recorded pEC50 for input CCN(CC)C(=O)[C@H]1C=C2c3cccc4[nH]cc(c34)C[C@H]2N(CCCF)C1
6.77

Annotate the compound CCCN1C[C@H](C(=O)N[C@H](C)CC)C=C2c3cccc4[nH]c(Br)c(c34)C[C@H]21 with its measured pEC50.
6.96

Write down pEC50 measured for item CCCN1C[C@@H](C(=O)N[C@H](C)CC)C=C2c3cccc4[nH]cc(c34)C[C@H]21
6.84

Give the measured pEC50 for CCC(CC)NC(=O)[C@@H]1C=C2c3cccc4[nH]cc(c34)C[C@H]2N(C)C1
7.80

Specify measured pEC50 for CCN(CC)C(=O)[C@@H]1C=C2c3cccc4[nH]cc(c34)C[C@H]2N(CC2CC2)C1 .
7.59

###

# test-target: 5-HT2A receptor (Homo sapiens, UniProt P28223)
# Construct: host or cells: HEK293
# Sequence (P28223 whole entry): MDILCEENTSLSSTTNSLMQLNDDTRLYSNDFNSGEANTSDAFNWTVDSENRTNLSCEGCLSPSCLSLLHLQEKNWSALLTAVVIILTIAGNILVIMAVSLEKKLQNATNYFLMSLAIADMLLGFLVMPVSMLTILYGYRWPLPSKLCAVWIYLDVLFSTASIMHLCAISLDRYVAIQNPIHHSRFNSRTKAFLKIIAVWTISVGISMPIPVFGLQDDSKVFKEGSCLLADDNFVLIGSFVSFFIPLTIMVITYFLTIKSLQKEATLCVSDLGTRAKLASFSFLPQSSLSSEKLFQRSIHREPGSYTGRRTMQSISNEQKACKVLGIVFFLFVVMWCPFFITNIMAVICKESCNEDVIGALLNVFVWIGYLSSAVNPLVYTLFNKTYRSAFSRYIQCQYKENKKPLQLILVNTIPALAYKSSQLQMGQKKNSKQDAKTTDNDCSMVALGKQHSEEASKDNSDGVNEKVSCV
# assay-remarks: cell-based
# Assay type: cell-based
# particulars: Ca^2+ flux, agonist; read-out: 5-HT2A EC50
property-name: pEC50
Answer as the number alone; pEC50 is minus log10 of concentration in mol/L.

Below, each entry is followed by its recorded pEC50 result.
CCC(CC)NC(=O)[C@@H]1C=C2c3cccc4[nH]c(Br)c(c34)C[C@H]2N(C)C1 [Compound 44]
6.89
C=CCN1C[C@H](C(=O)N2[C@@H](C)C[C@@H]2C)C=C2c3cccc4[nH]cc(c34)C[C@H]21 [Compound 27]
7.92

// switching to the query compound
Return pEC50 (reported value) for this compound: CCN(CC)C(=O)[C@@H]1C=C2c3cccc4[nH]cc(c34)C[C@H]2N(Cc2ccccc2O)C1 [Compound 16]
6.26

###

# test-target: 5-HT2A receptor (Homo sapiens, UniProt P28223)
# Construct: host or cells: HEK293
# assay-remarks: PathHunter beta-arrestin recruitment assay at 5-HT2A
# Assay type: cell-based
# particulars: 5-HT2A beta-arrestin
property-name: agonist type in arrestin recruitment assay (in words)

Worked set:
CCC[C@@H](C)NC(=O)[C@@H]1C=C2c3cccc4[nH]cc(c34)C[C@H]2N(C)C1 [Int17]
partial agonists
CCN(CC)C(=O)[C@@H]1C=C2c3cccc4[nH]cc(c34)C[C@H]2N(Cc2ccccc2OC)C1 [Compound 10]
partial agonists
CCC[C@@H](C)NC(=O)[C@@H]1C=C2c3cccc4[nH]cc(c34)C[C@H]2N(CCC)C1 [Compound 7]
full agonists
CCN(CC)C(=O)[C@@H]1C=C2c3cccc4[nH]cc(c34)C[C@H]2N(CCCF)C1 [Compound 2]
full agonists
CCCN1C[C@H](C(=O)N(CC)CC)C=C2c3cccc4[nH]cc(c34)C[C@H]21 [Compound 1]
full agonists

Could you now look at the following molecule, please?
Note agonist type in arrestin recruitment assay (in words) for the molecule shown: CCN(CC)C(=O)[C@@H]1C=C2c3cccc4[nH]cc(c34)C[C@H]2N(C)C1 [LSD, lysergic acid diethylamide, reference compound]
partial agonists

###

# test-target: UniProtKB P28222
# Sequence (P28222 whole entry): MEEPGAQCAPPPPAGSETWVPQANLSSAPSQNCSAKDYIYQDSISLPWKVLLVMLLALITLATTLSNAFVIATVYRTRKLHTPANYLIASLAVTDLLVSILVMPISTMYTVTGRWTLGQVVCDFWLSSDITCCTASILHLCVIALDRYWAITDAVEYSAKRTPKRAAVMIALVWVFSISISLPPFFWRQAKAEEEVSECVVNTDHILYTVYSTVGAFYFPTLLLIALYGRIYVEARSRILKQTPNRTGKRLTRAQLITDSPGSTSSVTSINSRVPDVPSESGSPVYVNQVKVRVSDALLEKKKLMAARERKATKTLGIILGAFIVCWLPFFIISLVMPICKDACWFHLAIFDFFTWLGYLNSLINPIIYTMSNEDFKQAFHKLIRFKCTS
# assay-remarks: cAMP accumulation agonist assay at 5-HT1B
# Format: cell-based
# particulars: cAMP, agonist
Recorded measurements of 5-HT1B % Act @ Max Dose, one per entry
Dear colleague, please return just the value in %, with no unit written.

Below: 2 compounds and their reported 5-HT1B % Act @ Max Dose.
CCCN1C[C@H](C(=O)N(CC)CC)C=C2c3cccc4c3C(CN4)C[C@H]21 (mixture of isomers)
97.51
CCN(CC)C(=O)[C@@H]1C=C2c3cccc4[nH]c(Br)c(c34)C[C@H]2N(CCC(F)(F)F)C1
33.13

As a next step, examine the compound that follows.
Report 5-HT1B % Act @ Max Dose for CCN(CC)C(=O)[C@@H]1C=C2c3cccc4[nH]c(Br)c(c34)C[C@H]2N(CCCF)C1
61.49

###

# test-target: 5-HT2B receptor (Homo sapiens)
# Construct: host or cells: HEK293
# Sequence (P41595 whole entry): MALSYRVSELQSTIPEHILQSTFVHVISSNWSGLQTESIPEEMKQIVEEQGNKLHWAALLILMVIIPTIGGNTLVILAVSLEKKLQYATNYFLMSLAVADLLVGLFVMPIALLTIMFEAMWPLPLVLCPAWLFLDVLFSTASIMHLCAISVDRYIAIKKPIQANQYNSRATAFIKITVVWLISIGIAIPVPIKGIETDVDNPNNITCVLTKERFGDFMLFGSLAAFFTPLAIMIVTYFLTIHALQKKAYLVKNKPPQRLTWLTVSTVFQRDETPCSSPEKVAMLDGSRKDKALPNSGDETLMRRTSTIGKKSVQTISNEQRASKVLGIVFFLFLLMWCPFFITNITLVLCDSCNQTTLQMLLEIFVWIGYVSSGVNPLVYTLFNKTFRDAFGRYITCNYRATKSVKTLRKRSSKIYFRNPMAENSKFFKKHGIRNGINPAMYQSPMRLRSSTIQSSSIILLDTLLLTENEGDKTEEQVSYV
# assay-remarks: cell-based
# particulars: Ca^2+ flux, agonist; read-out: 5-HT2B EC50
property-name: EC50 (nM)
Use nM as the unit, but write only the number.

Write down EC50 measured for item CCN(CC)C(=O)[C@@H]1C=C2c3cccc4[nH]c(Br)c(c34)C[C@H]2N(CCCF)C1
509

Name the recorded EC50 of the item CCN(CC)C(=O)[C@@H]1C=C2c3cccc4[nH]cc(c34)C[C@H]2N(CCCF)C1 in your answer.
202

Specify EC50 for CCCN1C[C@@H](C(=O)N[C@H](C)CC)C=C2c3cccc4[nH]cc(c34)C[C@H]21 and stop.
1820

Tell me its EC50 given CCN(CC)C(=O)[C@H]1C=C2c3cccc4[nH]cc(c34)C[C@H]2N(CCCF)C1 as the entry.
2170

Tell me measured EC50 for CCN(CC)C(=O)[C@@H]1C=C2c3cccc4[nH]cc(c34)C[C@H]2N(CC2CC2)C1 please.
182

Fill in reported EC50 for this entry: CCC[C@@H](C)NC(=O)[C@@H]1C=C2c3cccc4[nH]cc(c34)C[C@H]2N(C)C1
70.8

###

# assay-remarks: Metabolic stability in mouse liver microsomes (MLM)
# Format: in vitro ADME
# particulars: MLM (CD-1), 1 μM, 0.50 mg protein per mL
Note to self: use t only for t1/2 readings below 2 min; a reading exactly at 2 min still gets f.

Use the examples below as a reference point.
CCN(CC)C(=O)[C@@H]1C=C2c3cccc4[nH]cc(c34)C[C@H]2N(CC2CC2)C1
f
CCN(CC)C(=O)[C@@H]1C=C2c3cccc4[nH]cc(c34)C[C@H]2N(CCc2cccc(OC)c2)C1
t
CCC[C@@H](C)NC(=O)[C@@H]1C=C2c3cccc4[nH]cc(c34)C[C@H]2N(C)C1
f
CCCN1C[C@H](C(=O)N(CC)CC)C=C2c3cccc4[nH]cc(c34)C[C@H]21
f
CCCN1C[C@@H](C(=O)N[C@H](C)CC)C=C2c3cccc4[nH]cc(c34)C[C@H]21
t
CC[C@@H](C)NC(=O)[C@H]1C=C2c3cccc4[nH]cc(c34)C[C@H]2N(C)C1
t

Determine whether this compound shows t1/2 lower than 2 min (ties excluded): CCC[C@@H](C)NC(=O)[C@H]1C=C2c3cccc4[nH]cc(c34)C[C@H]2N(C)C1 [Int17a]
t

Is t1/2 of CCN(CC)C(=O)[C@@H]1C=C2c3cccc4[nH]cc(c34)C[C@H]2N(Cc2ccccn2)C1 strictly below 2 min?
f

Item CC[C@@H](C)NC(=O)[C@H]1C=C2c3cccc4[nH]cc(c34)C[C@H]2N(CC)C1 : t1/2 beneath 2 min, strictly?
t

Does this compound meet the criterion t1/2 < 2 min? CCN(CC)C(=O)[C@@H]1C=C2c3cccc4[nH]cc(c34)C[C@H]2N(CCc2ccccc2OC)C1
t

State whether 2 min exceeds t1/2 recorded for CCN(CC)C(=O)[C@@H]1C=C2c3cccc4[nH]cc(c34)C[C@H]2N(CCc2ccc(OC)cc2)C1 .
t

Strictly below 2 min in t1/2? CCCN1C[C@H](C(=O)N[C@H](C)CC)C=C2c3cccc4[nH]cc(c34)C[C@H]21
t

Dear colleague, could you confirm whether t1/2 of CCCN1C[C@H](C(=O)NC(CC)CC)C=C2c3cccc4[nH]cc(c34)C[C@H]21 falls below 2 min? Thanks.
t

Record CCN(CC)C(=O)[C@@H]1C=C2c3cccc4[nH]cc(c34)C[C@H]2N(CCCF)C1 : is its t1/2 strictly below 2 min?
f

Below 2 min on t1/2? Entry CCC(CC)NC(=O)[C@H]1C=C2c3cccc4[nH]cc(c34)C[C@H]2N(C)C1 [Int14a]
t

Threshold test, t1/2 < 2 min: CCN(CC)C(=O)[C@@H]1C=C2c3cccc4[nH]cc(c34)C[C@H]2N(Cc2ccc(OC)cc2)C1
f
